measure: melting point

Sample records with melting point:
{"columns": ["smiles-representation", "melting point"],
 "data": [
  ["COCCc1nc2c(N)nc3ccccc3c2n1CCNC(=O)OC(C)(C)C", "173 to 175 °C"],
  ["CCCCCc1nc2c(N)nc3ccccc3c2n1CCCCNC(=O)Nc1ccccc1", "159 to 160.4 °C"],
  ["CCCNC(=S)NCCCCn1c(-c2ccccc2)nc2c(N)nc3ccccc3c21", "113 to 116 °C"],
  ["COCCc1nc2c(N)nc3ccccc3c2n1CCCNC(=O)NC1CCCCC1", "179 to 180 °C"],
  ["CCCCc1nc2c(N)nc3ccccc3c2n1CCCNC(=O)N1CCOCC1", "193.4 to 194.6 °C"],
  ["Nc1nc2ccccc2c2c1nc(CCCOc1ccccc1)n2CCCNC(=O)N1CCOCC1", "198.8 to 199.9 °C"],
  ["Nc1nc2ccccc2c2c1nc(-c1ccccc1)n2CCCCNC(=O)Nc1ccc(F)cc1", "145 to 150 °C"],
  ["COCCc1nc2c(N)nc3c(c2n1CCCNC(=O)N1CCOCC1)CCCC3", "171.8 to 173.2 °C"]
]}

melting point for "CC(C)(C)OC(=O)NCCn1cnc2c(N)nc3ccccc3c21" is 215 °C

melting point for "CCCCc1nc2c(N)nc3ccccc3c2n1CCCNC(=O)NC1CCCCC1" is 200 to 201 °C

melting point for "CCOCc1nc2c(N)nc3ccccc3c2n1CCNC(=O)OC(C)(C)C" is 201 to 202 °C

melting point for "CC(C)(C)OC(=O)NCCCn1c(CCCOc2ccccc2)nc2c(N)nc3ccccc3c21" is 151 to 153 °C

melting point for "Cc1nc2c(N)nc3c(c2n1CCCCNC(=O)N1CCOCC1)CCCC3" is 133.6 to 134.6 °C

melting point for "CC(C)(C)OC(=O)NCCCn1cnc2c(N)nc3ccccc3c21" is 196 to 198 °C
